system: LOX IMVI melanoma; assay: NCI tumour cell line growth inhibition, 48 h
The compounds listed here are annotated with their TGI.
RECORDED METRIC: TGI (µM)

>>> result("CC(=O)[C@H]1[C@@H](OCc2ccccc2)O[N+]([O-])=C(C)[C@@H]1c1ccccc1")
45.7
>>> result("N#Cc1ccc(N2Cc3cc(Cl)ccc3OC3=C2C(=O)N(Cc2ccc(F)cc2)C3=O)cc1")
0.908
>>> result("Cc1cc(CN(Cc2ccccc2)Cc2nc3ccccc3[nH]2)c(O)c(CN(Cc2nc3ccccc3[nH]2)Cc2nc3ccccc3[nH]2)c1")
13.3
>>> result("C=CC(Br)(CBr)CCC(Br)C(C)(C)Br (stereo not drawn)")
25.5

----------
system: ACHN renal; experiment: NCI tumour cell line growth inhibition, 48 h
The compounds listed here are annotated with their TGI.
RECORDED METRIC: TGI

>>> result("C=C(C)C1Cc2c(cc(OC)c3c(=O)c4ccccc4n(C)c23)O1 (stereo not drawn)")
"> 100 µM"
>>> result("O=S1c2ccccc2N=C(c2ccc3ccccc3c2)CC1c1ccccc1F (stereo not drawn)")
"> 100 µM"
>>> result("Clc1ccc(/C=C/c2nc(-c3ccc(Cl)cc3)cn3c2nc2ccccc23)cc1")
"> 100 µM"

----------
tested on: SK-MEL-5 melanoma; experiment: NCI tumour cell line growth inhibition, 48 h
The molecules listed here are annotated with their TGI.
RECORDED METRIC: TGI

>>> result("COC1=CCC2=C(CCN(C(=O)C3CC3)C2Cc2ccc(OC)c(O)c2)C1 (configuration not stated)")
"> 100 µM"
>>> result("COc1cc(C2CC(=O)c3c(C)nn(-c4nc5ccccc5[nH]4)c3C2)cc(OC)c1OC (configuration not stated)")
"> 100 µM"
>>> result("O=C(O)/C(=C/c1ccccc1[N+](=O)[O-])c1cccs1")
"> 100 µM"
>>> result("CC(=O)Nc1cc(C(c2ccccc2)c2ccccc2)cc(C(c2ccccc2)c2ccccc2)c1C")
"> 100 µM"
>>> result("Nc1cccc(/C=C/CN2CCN(CCOC(c3ccccc3)c3ccccc3)CC2)c1")
"26.8 µM"
>>> result("CC(=O)OCC1=C2C(OC(=O)C(C)C)CC3(COC(C)=O)OC3/C=C\\C3(C)OC3C2OC1=O (configuration not stated)")
"> 100 µM"
>>> result("CCCCCCCCCCCCNC(=O)[C@H]1CSC(c2cc(Br)cs2)N1 (some centres not stated)")
"11.8 µM"

----------
system: NCI-H460 lung; assay: NCI tumour cell line growth inhibition, 48 h
RECORDED METRIC: TGI

>>> result("Nc1nccc2c1ncn2C1C=C(CO)C(O)C1O (stereo unspecified)")
"> 1000 µM"
>>> result("COC(=O)[C@H]1CC(=O)C=C2CCCC21 (stereo partly specified)")
"> 100 µM"
>>> result("Nc1nc(Cl)cc(NCC2(CO)CC(c3ccccc3)C2)n1 (stereo unspecified)")
"> 100 µM"
>>> result("COC(=O)CCN1CCN(CCO)CC1C (stereo unspecified)")
"> 10 µM"
>>> result("Cc1ccc(N(C)S(=O)(=O)c2ccccc2)cc1")
"> 100 µM"
>>> result("CC(=O)[C@H]1[C@@H](OCc2ccccc2)O[N+]([O-])=C(C)[C@@H]1c1ccccc1")
"> 100 µM"

Every entry's value here was drawn from PubChem BioAssay (NCI).
